// provenance: paper PMC8070284

assay: In vivo plasma pharmacokinetics after a single i.v. or p.o. dose in male ICR mice; parameters: species or system mouse; conditions: mouse, plasma, oral; LW6 5 mg/kg p.o. vs 5 mg/kg i.v., calculated using AUC0–t, male ICR mice; read-out: F (oral bioavailability)
measure-name: bioavailability (%)

COC(=O)c1ccc(O)c(NC(=O)COc2ccc(C34CC5CC(CC(C5)C3)C4)cc2)c1
1.7

---

experiment: in vitro; settings: human, Caco-2, pH 7.4, Papp
measure-name: Papp at 120 min, 5 µM (×10⁻⁶ cm/s)

COC(=O)c1ccc(O)c(NC(=O)COc2ccc(C34CC5CC(CC(C5)C3)C4)cc2)c1
2.1
COCCc1ccc(OCC(O)CNC(C)C)cc1 (stereo not drawn)
35.3
CNC(=C[N+](=O)[O-])NCCSCc1ccc(CN(C)C)o1
0.8

---

test: In vivo plasma pharmacokinetics after a single i.v. or p.o. dose in male ICR mice; parameters: species or system mouse; conditions: mouse, po; plasma, analyte = label, after single p.o. dose of LW6 5 mg/kg, male ICR mice, n = 5
measure-name: Tmax (min)

O=C(O)COc1ccc(C23CC4CC(CC(C4)C2)C3)cc1
42
COC(=O)c1ccc(O)c(NC(=O)COc2ccc(C34CC5CC(CC(C5)C3)C4)cc2)c1
18

---

assay: Stability in mouse serum; type: in vitro ADME; conditions: ICR; mouse serum, 5 µM, up to 6 h; read-out: t1/2 of degradation in serum
measure-name: half-life at 5 µM

COC(=O)c1ccc(O)c(NC(=O)COc2ccc(C34CC5CC(CC(C5)C3)C4)cc2)c1
> 6 h

---

test: In vivo plasma pharmacokinetics after a single i.v. or p.o. dose in male ICR mice; parameters: species or system mouse; details: male, ICR, mouse, plasma, iv, 5 mg/kg, single i.v. dose of APA 5 mg/kg, male ICR mice, n = 5; read-out: Vss
measure-name: Vd (L/kg)

O=C(O)COc1ccc(C23CC4CC(CC(C4)C2)C3)cc1 [APA, (4-adamantan-1-yl-phenoxy)acetic acid]
0.4

---

experiment: in vitro; settings: human, Caco-2, pH 7.4, Typical apparent permeability coefficient (Papp) values
This listing pairs compounds with measured Papp at 120 min, 5 µM.
measure-name: Papp at 120 min, 5 µM

COCCc1ccc(OCC(O)CNC(C)C)cc1 (centres unmarked) [Metoprolol, metoprolol]
> 250 nm/s
CNC(=C[N+](=O)[O-])NCCSCc1ccc(CN(C)C)o1 [Ranitidine, ranitidine]
< 20 nm/s

---

experiment: In vivo plasma pharmacokinetics after a single i.v. or p.o. dose in male ICR mice; parameters: species or system mouse; conditions: male, ICR, mouse, plasma, iv, 5 mg/kg, single i.v. dose of LW6 5 mg/kg, male ICR mice; read-out: Vss (volume of distribution at steady state)
measure-name: Vd (L/kg)

COC(=O)c1ccc(O)c(NC(=O)COc2ccc(C34CC5CC(CC(C5)C3)C4)cc2)c1
0.5

---

assay: In vivo plasma pharmacokinetics after a single i.v. or p.o. dose in male ICR mice; set-up: species or system mouse; conditions: mouse, plasma, iv; single i.v. dose of LW6 5 mg/kg, male ICR mice; read-out: CL (systemic clearance) (converted)
measure-name: clearance (mL/min/kg)

COC(=O)c1ccc(O)c(NC(=O)COc2ccc(C34CC5CC(CC(C5)C3)C4)cc2)c1
28.3

---

Assay: In vivo plasma pharmacokinetics after a single i.v. or p.o. dose in male ICR mice
Parameters: species or system mouse
Details: mouse, po; plasma, analyte = label, after single p.o. dose of LW6 5 mg/kg, male ICR mice
Source text: The animal experiments conducted in this study were approved by the Institutional Animal Care and Use Committee of the Korea Research Institute of Bioscience and Biotechnology (Chung-buk, Korea; KRIBB-AEC-15005, 9 January 2015) and performed in compliance with the National Institutes of Health Guidelines for the care and use of laboratory animals and Korean national laws for ethical conduct in the care and use of animals. […]
This listing pairs compounds with measured Cmax.
measure-name: Cmax (ng/mL)

COC(=O)c1ccc(O)c(NC(=O)COc2ccc(C34CC5CC(CC(C5)C3)C4)cc2)c1 [LW6]
65.5
O=C(O)COc1ccc(C23CC4CC(CC(C4)C2)C3)cc1 [APA, (4-adamantan-1-yl-phenoxy)acetic acid]
4240

---

experiment: In vivo plasma pharmacokinetics after a single i.v. or p.o. dose in male ICR mice; parameters: species or system mouse; conditions: male, ICR, mouse, plasma, iv, 5 mg/kg, plasma, analyte = label, after single i.v. dose of LW6 5 mg/kg, male ICR mice; read-out: t1/2 (terminal) (converted)
This listing pairs molecules with measured half-life.
measure-name: half-life (h)

O=C(O)COc1ccc(C23CC4CC(CC(C4)C2)C3)cc1 [APA, (4-adamantan-1-yl-phenoxy)acetic acid]
2.7
COC(=O)c1ccc(O)c(NC(=O)COc2ccc(C34CC5CC(CC(C5)C3)C4)cc2)c1 [LW6]
0.6
